normalized growth listing for selected compounds.
# Assay Info: chemical genetic growth profiling, strain panel (AID 1159580);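 also: tested at 20 µM; growth read once vehicle control cultures reached saturation at 30 °C; 1 = growth at the plate median or of vehicle wells; lower values mean less growth of the strain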
# Study Conditions: S. cerevisiae deletion strains, growth OD, locus YOR270C, strain vph1, stronger effect = lower value
About 2,000 (36%) of roughly 5,500 compounds were called active. About 18% were inconclusive and are not listed. This is one part of the list.
Measured Parameter: normalized growth

compound=CC(C)(Sc1cc(C(C)(C)C)c(O)c(C(C)(C)C)c1)Sc1cc(C(C)(C)C)c(O)c(C(C)(C)C)c1 measured_parameter="normalized growth" reported=1.05
compound="C#C[C@]1(O)CCC2C3CCC4=CC(=O)CC[C@@H]4C3CC[C@@]21C (stereo partly drawn)" measured_parameter="normalized growth" reported=0.901
compound="C#C[C@]1(O)CCC2C3CCC4=C(CCC(=O)C4)C3CC[C@@]21C (stereo partly drawn)" measured_parameter="normalized growth" reported=0.955
compound="CC(=O)O[C@H]1CC[C@@]2(C)C(CC[C@]3(C)C2CC=C2C4CC(C)(C)CC[C@]4(C)CC[C@]23C)C1(C)C (stereo partly drawn)" measured_parameter="normalized growth" reported=1.03
compound="N#CC(O[C@@H]1O[C@H](CO[C@@H]2O[C@H](CO)[C@@H](O)[C@H](O)[C@H]2O)[C@@H](O)[C@H](O)[C@H]1O)c1ccccc1 (stereo partly drawn)" measured_parameter="normalized growth" reported=0.98
compound="C[C@]12CCC(=O)C=C1CCC1C2[C@@H](O)C[C@@]2(C)C1CC[C@]2(O)C(=O)CO (stereo partly drawn)" measured_parameter="normalized growth" reported=0.996
compound="NC(Cc1c[nH]c2ccccc12)C(=O)O (stereo not drawn)" measured_parameter="normalized growth" reported=1.04
compound="CC(=O)O[C@@H]1CC[C@@]2(C)C(CC[C@]3(C)C2CC=C2C4CC(C)(C)CC[C@]4(C(=O)O)CC[C@]23C)C1(C)C (stereo partly drawn)" measured_parameter="normalized growth" reported=0.946

====

# Assay Info: chemical genetic growth profiling, strain panel (AID 1159580)
# Study Conditions: S. cerevisiae deletion strains, growth OD, locus YNL183C, strain NPR1, stronger effect = lower value
Screen size: about 5,500 compounds; about 2,000 (36%) were called active. About 18% were inconclusive and are not listed. The list shows a part of the results.
Measured Parameter: normalized growth

compound="C#C[C@]1(O)CCC2C3CCC4=CC(=O)CC[C@@H]4C3CC[C@@]21CC (stereo not given in full)" reported=0.922
compound=O=C(COc1ccc(Cl)cc1)N1CCN(Cc2ccc3c(c2)OCO3)CC1 reported=0.918
compound="C[C@]12CCC(=O)C=C1CCC1C2[C@@H](O)C[C@@]2(C)C1CC[C@]2(O)C(=O)CO (stereo not given in full)" reported=0.939
compound="C#C[C@]1(O)CCC2C3CCC4=CC(=O)CC[C@@H]4C3CC[C@@]21C (stereo not given in full)" reported=0.924
compound="C#C[C@]1(O)CCC2C3CCC4=C(CCC(=O)C4)C3CC[C@@]21C (stereo not given in full)" reported=0.919

====

# Assay Info: chemical genetic growth profiling, strain panel (AID 1159580)
# Study Conditions: S. cerevisiae deletion strains, growth OD, strain wtn01, stronger effect = lower value
Hit rate of the full screen: of about 5,500 compounds, about 2,000 (36%) were called active. Another 18% or so got no clear call; they are omitted. The list shows a part of the results. Where a SMILES comes first, the peptide text is derived from it. The star is where a group is joined. For = O=C*
Measured Parameter: normalized growth

compound="CSCCC(NC=O)C(=O)NC(Cc1ccccc1)C(=O)O (stereo not drawn) (For-Met-Phe-OH; configuration not given here)" reported=1.04
compound=O=C1c2c(O)cccc2Cc2cccc(O)c21 reported=0.999
compound=Cc1cc(O)cc(=O)o1 reported=0.93
compound="O=C(O)/C=C1\\CCCc2ccccc2C1O (configuration not stated)" reported=0.98
compound=Cc1cc(O)cc(C)c1Cl reported=0.96
compound="N#CC(O[C@@H]1O[C@H](CO[C@@H]2O[C@H](CO)[C@@H](O)[C@H](O)[C@H]2O)[C@@H](O)[C@H](O)[C@H]1O)c1ccccc1 (some centres not stated)" reported=0.984
compound=Cc1cc(O)cc(O)c1C(=O)O reported=1.02

====

# Assay Info: chemical genetic growth profiling, strain panel (AID 1159580);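 also: tested at 20 µM; growth read once vehicle control cultures reached saturation at 30 °C; 1 = growth at the plate median or of vehicle wells; lower values mean less growth of the strain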
# Study Conditions: S. cerevisiae deletion strains, growth OD, locus YNL271C, strain bni1, stronger effect = lower value
Out of some 5,500 compounds screened, about 2,000 (36%) were called active. Inconclusive results (about 18%) are left out. The list shows a part of the results. Where a SMILES comes first, the peptide text is derived from it. Bridges are numbered along the chain shown (N, C = ends). [ ]: non-standard residue; d: D form. The star is where a group is joined. ξ: configuration not given here. ξDab(CH2SO3H) = NC(CCNCS(=O)(=O)O)C(=O)O; Heptanoyl(6-Me) = CC(C)CCCCC(=O)*; Dab = NCC[CH](N)C(=O)O
Measured Parameter: normalized growth

compound="Nc1c2ccccc2nc2ccccc12 (tested in a mixture with another compound)" measured_parameter="normalized growth" reported=0.891
compound="CC(C)=CCCC1(C)C=Cc2c(O)c3c(c(CC=C(C)C)c2O1)OC12C(=CC4CC1C(C)(C)OC2(C/C=C(\\C)C(N)=O)C4=O)C3=O (centres undefined)" measured_parameter="normalized growth" reported=0.993
compound="COC(=O)/C(C)=C\\CC12OC(C)(C)C3CC(C=C4C(=O)c5c(O)c6c(c(CCC(C)(C)Cl)c5OC431)OC1(C)CCC(=C(C)C)C6C1)C2=O (centres undefined)" measured_parameter="normalized growth" reported=1.01
compound="CCC(C)C1NC(=O)C(CCNCS(=O)(=O)O)NC(=O)C(NC(=O)C(CCNCS(=O)(=O)O)NC(=O)C(NC(=O)C(CCNCS(=O)(=O)O)NC(=O)CCCCC(C)C)C(C)O)CCNC(=O)C(C(C)O)NC(=O)C(CCNCS(=O)(=O)O)NC(=O)C(CCNCS(=O)(=O)O)NC(=O)C(C(C)CC)NC1=O (centres undefined) ({Heptanoyl(6-Me)}-[ξDab(CH2SO3H)]T[ξDab(CH2SO3H)][Dab][ξDab(CH2SO3H)]II[ξDab(CH2SO3H)][ξDab(CH2SO3H)]T; lactam 4-C; configuration not given here)" measured_parameter="normalized growth" reported=0.963

====

# Assay Info: chemical genetic growth profiling, strain panel (AID 1159580);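 also: tested at 20 µM; growth read once vehicle control cultures reached saturation at 30 °C; 1 = growth at the plate median or of vehicle wells; lower values mean less growth of the strain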
# Study Conditions: S. cerevisiae deletion strains, growth OD, locus YOR083W, strain WHI5 (second series), stronger effect = lower value
The campaign covered roughly 5,500 compounds. About 2,000 (36%) were called active. Roughly 18% stayed inconclusive and do not appear here. The list shows a part of the results.
Checkbox rule: normalized growth lower than 1 = satisfied; normalized growth not lower than 1 = not satisfied.

molecular_string=Clc1ccccc1C(c1ccccc1)(c1ccccc1)n1ccnc1 classification=satisfied
molecular_string=Clc1cc(I)cc(Cl)c1NC1=NCCN1 classification="not satisfied"
molecular_string=O=c1c2ccccc2nc2n1CCc1c-2[nH]c2ccccc12 classification=satisfied
molecular_string=NNc1nncc2ccccc12 classification="not satisfied"

====

# Assay Info: chemical genetic growth profiling, strain panel (AID 1159580);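 also: tested at 20 µM; growth read once vehicle control cultures reached saturation at 30 °C; 1 = growth at the plate median or of vehicle wells; lower values mean less growth of the strain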
# Study Conditions: S. cerevisiae deletion strains, growth OD, locus YOR069W, strain VPS5, stronger effect = lower value
The campaign covered roughly 5,500 compounds. About 2,000 (36%) were called active. Not shown: some 18% with an inconclusive outcome. The list shows a part of the results. Where a SMILES comes first, the peptide text is derived from it. Bridges are numbered along the chain shown (N, C = ends). [ ]: non-standard residue; d: D form. The star is where a group is joined. ξ: configuration not given here. ξDab(CH2SO3H) = NC(CCNCS(=O)(=O)O)C(=O)O; Heptanoyl(6-Me) = CC(C)CCCCC(=O)*; Dab = NCC[CH](N)C(=O)O
normalized growth listing for selected compounds.
Measured Parameter: normalized growth

compound=C/C=C(/C)C(=O)O[C@H]1CC[C@@]2(C)[C@@H]3CC[C@H]4[C@]5(O)C[C@H](O)[C@@]6(O)[C@@H](CN7C[C@@H](C)CC[C@H]7[C@@]6(C)O)[C@]5(O)C[C@@]42O[C@]13O reported=0.997
compound=COc1ccc2c(c1)c(CC(=O)OCC(=O)O)c(C)n2C(=O)c1ccc(Cl)cc1 reported=1.01
compound=COc1ccc2c(c1)c(CC(=O)O)c(C)n2C(=O)c1ccc(Cl)cc1 reported=0.996
compound=COc1cc(C(=O)O[C@H]2CC[C@@]3(C)[C@@H]4CC[C@H]5[C@]6(O)C[C@H](O)[C@@]7(O)[C@@H](CN8C[C@@H](C)CC[C@H]8[C@@]7(C)O)[C@]6(O)C[C@@]53O[C@]24O)cc(OC)c1OC reported=0.996
compound="CCC(C)C1NC(=O)C(CCNCS(=O)(=O)O)NC(=O)C(NC(=O)C(CCNCS(=O)(=O)O)NC(=O)C(NC(=O)C(CCNCS(=O)(=O)O)NC(=O)CCCCC(C)C)C(C)O)CCNC(=O)C(C(C)O)NC(=O)C(CCNCS(=O)(=O)O)NC(=O)C(CCNCS(=O)(=O)O)NC(=O)C(C(C)CC)NC1=O (configuration not stated) ({Heptanoyl(6-Me)}-[ξDab(CH2SO3H)]T[ξDab(CH2SO3H)][Dab][ξDab(CH2SO3H)]II[ξDab(CH2SO3H)][ξDab(CH2SO3H)]T; lactam 4-C; configuration not given here)" reported=0.983
compound="C/C=C(/C)C(=O)OC1CCC2(C)C3CCC4C5(O)CC(O)C6(O)C(CN7CC(C)CCC7C6(C)O)C5(O)CC42OC13O (configuration not stated)" reported=0.981
compound=O=c1oc2cc(O)ccc2s1 reported=0.984
